Target: Sodium/glucose cotransporter 2 (Homo sapiens, UniProt P31639)
Sequence (P31639 whole entry): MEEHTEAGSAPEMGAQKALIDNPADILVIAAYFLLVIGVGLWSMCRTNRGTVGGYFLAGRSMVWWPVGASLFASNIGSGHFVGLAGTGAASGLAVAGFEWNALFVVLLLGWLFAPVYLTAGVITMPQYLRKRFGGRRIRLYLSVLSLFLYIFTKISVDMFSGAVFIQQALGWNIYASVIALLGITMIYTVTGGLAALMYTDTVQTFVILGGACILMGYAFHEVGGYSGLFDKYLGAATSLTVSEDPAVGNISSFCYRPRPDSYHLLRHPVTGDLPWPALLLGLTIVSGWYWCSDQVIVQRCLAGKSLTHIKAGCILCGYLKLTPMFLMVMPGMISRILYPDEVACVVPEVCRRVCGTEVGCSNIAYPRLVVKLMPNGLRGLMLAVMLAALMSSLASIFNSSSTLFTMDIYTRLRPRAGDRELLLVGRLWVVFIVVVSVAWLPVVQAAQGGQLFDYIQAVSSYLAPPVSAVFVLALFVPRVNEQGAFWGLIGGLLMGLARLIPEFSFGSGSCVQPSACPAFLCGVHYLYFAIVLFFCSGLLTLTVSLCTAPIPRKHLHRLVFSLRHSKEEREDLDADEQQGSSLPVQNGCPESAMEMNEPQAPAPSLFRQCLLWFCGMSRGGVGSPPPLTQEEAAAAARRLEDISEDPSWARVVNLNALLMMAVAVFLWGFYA
Assay Remarks: Inhibition of human SGLT2 expressed in CHO-K1 cells assessed as inhibition of [14C]-AMG uptake up to 120 mins by scintillation counting method
Observation Type: EC50 (µM)

Before answering, review these 2 worked examples.
Data request: EC50 for CCOc1ccc(Cc2cc([C@@H]3O[C@H]([C@H](O)CO)[C@H](O)[C@H]3O)ccc2C)cc1 ?
Data returned: 34

Data request: Looking for the measured EC50 of COc1ccc(Cc2cc([C@@H]3O[C@H]([C@H](O)CO)[C@H](O)[C@H]3O)ccc2Cl)cc1 , can you help?
Data returned: 35

a. CCc1ccc(Cc2cc([C@@H]3O[C@H]([C@H](O)CO)[C@H](O)[C@H]3O)ccc2C)cc1
b. CSc1ccc(Cc2cc([C@@H]3O[C@H]([C@H](O)CO)[C@H](O)[C@H]3O)ccc2Cl)cc1
c. CC(C)c1ccc(Cc2cc([C@@H]3O[C@H]([C@H](O)CO)[C@H](O)[C@H]3O)ccc2Cl)cc1
d. Cc1ccc([C@@H]2O[C@H]([C@H](O)CO)[C@H](O)[C@H]2O)cc1Cc1ccc(C(C)C)cc1
Data request: List by increasing EC50. Provide the labels, sequenced as the question asks.
Data returned: a, b, d, c

====

Target: Sodium/glucose cotransporter 2 (Homo sapiens)
Assay Remarks: Inhibition of human SGLT2 expressed in CHO-K1 cells assessed as inhibition of [14C]-AMG uptake up to 120 mins by scintillation counting method
Format: cell-based
pEC50: −log10 of the molar value.
Observation Type: pEC50

Data request: Observed pEC50 on Sodium/glucose cotransporter 2 (Homo sapiens) for CCOc1ccc(Cc2cc([C@@H]3O[C@H]([C@H](O)CO)[C@H](O)[C@H]3O)c(OC)cc2Cl)cc1 , please.
Data returned: 4.34

Data request: Record CCc1ccc(Cc2cc([C@@H]3O[C@H]([C@H](O)CO)[C@H](O)[C@H]3O)c(OC)cc2Cl)cc1 : what is its pEC50 with Sodium/glucose cotransporter 2 (Homo sapiens)?
Data returned: 6.21

P. COc1ccc2cc(Cc3cc([C@@H]4O[C@H]([C@H](O)CO)[C@H](O)[C@H]4O)ccc3Cl)ccc2c1
Q. COc1cc(Cl)c(Cc2ccc(C(C)C)cc2)cc1[C@@H]1O[C@H]([C@H](O)CO)[C@H](O)[C@H]1O
Data request: # returns the entry with the larger pEC50; inputs P and Q Lab log: write the label of the selected item as the result.
Data returned: P

Every entry's value here was drawn from ChEMBL document CHEMBL2440078.
